- Tested on: OVCAR-4 ovarian
- Test: NCI-60 one-dose screen, 48 h (100 = growth as untreated, 0 = no growth, -100 = all killed)
- Assay setup: 10 µM unless noted
Compounds without any hit were thinned out: in the full panel of roughly 83,000, 20% have a hit.
Response field label takes Condition met when growth is strictly below 70% and Condition not met in all other cases.

### Prompt growth strictly < 70% for this compound? COc1ccc(-c2cc(-c3nnc(SCC(=O)Nc4ccc(/C(C)=N\O)cc4)n3-c3ccccc3)c3cc(OC)ccc3n2)cc1
### Response Condition not met

### Prompt Input C=C1C(=O)O[C@H]2[C@H]1CC/C(COC(=O)c1c[nH]c3ccccc13)=C\CC[C@@]1(C)O[C@@H]21 ; condition: growth strictly below 70%. Does it hold?
### Response Condition met

### Prompt Does the reported growth of CN(C)CCCn1c2c(c3cc(-c4cccc(S(N)(=O)=O)c4)ccc3c1=O)C(=O)c1ccccc1-2 stay below 70%?
### Response Condition not met

### Prompt Find out if reported growth for O=C1CCC23OC(c4ccccc4N12)C(O)C(O)C3O (stereo not drawn) is less than 70%
### Response Condition not met

### Prompt API: query returns whether the compound falls strictly under 70% in growth. Query: C#C[C@@]1(O)[C@@H](CO)O[C@@H](n2cnc3c(-c4ccccc4)ncnc32)[C@@H]1O
### Response Condition not met

### Prompt Just wondering, is growth of COc1cc(C2=N/C(=C\c3cc4ccccc4nc3Oc3ccccc3)C(=O)N2C(=N)N)cc(OC)c1OC below 70%?
### Response Condition met

### Prompt is_below(growth, 70%) for Nc1c(C(=O)c2ccccc2)sc2nc(-c3cc4ccccc4o3)cc(-c3ccc(Cl)cc3)c12 ?
### Response Condition not met
